meta.source: ChEMBL document CHEMBL1133607

Biological target: Kappa-type opioid receptor (Cavia porcellus)
Sequence (P41144 whole entry): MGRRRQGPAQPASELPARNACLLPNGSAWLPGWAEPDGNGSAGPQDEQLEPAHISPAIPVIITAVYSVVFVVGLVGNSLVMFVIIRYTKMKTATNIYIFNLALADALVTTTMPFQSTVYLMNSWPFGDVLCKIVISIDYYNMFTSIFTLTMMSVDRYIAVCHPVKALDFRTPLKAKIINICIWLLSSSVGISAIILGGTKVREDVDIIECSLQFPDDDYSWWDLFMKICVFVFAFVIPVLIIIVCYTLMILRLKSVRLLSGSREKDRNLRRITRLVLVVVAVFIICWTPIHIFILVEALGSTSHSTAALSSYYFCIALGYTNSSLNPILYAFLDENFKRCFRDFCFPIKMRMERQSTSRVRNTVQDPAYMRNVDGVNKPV
Residues, ends and D or L forms follow the SMILES beside them. *: point of attachment. X1 = CC1C2Cc3ccc(O)cc3[C@]1(C)CCN2CC1C[C@]1(C(=O)*)c1ccccc1
I'd be grateful if you could share measured log10(Ki) for these entries.
Could you please treat all values as log10 of Ki in nM?

For Kappa-type opioid receptor (Cavia porcellus), provide log10(Ki) of CC[C@H](C)[C@H](NC(=O)[C@H](CCCNC(=N)N)NC(=O)[C@H](CCCNC(=N)N)NC(=O)CNC(=O)[C@]1(c2ccccc2)CC1CN1CC[C@@]2(C)c3cc(O)ccc3CC1C2C)C(=O)OC (stereo partly drawn) (X1-GRRI-OMe) please. 1.73

// repeat for CC(C)CC(NC(=O)[C@]1(c2ccccc2)CC1CN1CC[C@@]2(C)c3cc(O)ccc3CC1C2C)C(=O)NCCCCCCN=C(N)N (stereo partly drawn) and report 2.14

Consider next the molecule CCCCC(=N)NCCCCNC(=O)C(CC(C)C)NC(=O)CNC(=O)[C@]1(c2ccccc2)CC1CN1CC[C@@]2(C)c3cc(O)ccc3CC1C2C (stereo partly drawn) in the same way. 1.01

Follow-up entry: CCC(=N)NCCCCNC(=O)C(CC(C)C)NC(=O)CNC(=O)[C@]1(c2ccccc2)CC1CN1CC[C@@]2(C)c3cc(O)ccc3CC1C2C (stereo partly drawn) 2.25

Field entry: CCC(=N)NCCCCCNC(=O)C(CC(C)C)NC(=O)[C@]1(c2ccccc2)CC1CN1CC[C@@]2(C)c3cc(O)ccc3CC1C2C (stereo partly drawn) 2.17

Please answer likewise for CCCCC(=N)NCCCCCCNC(=O)C(CC(C)C)NC(=O)[C@]1(c2ccccc2)CC1CN1CC[C@@]2(C)c3cc(O)ccc3CC1C2C (stereo partly drawn) 1.91

And CCCC(=N)NCCCNC(=O)C(CC(C)C)NC(=O)[C@]1(c2ccccc2)CC1CN1CC[C@@]2(C)c3cc(O)ccc3CC1C2C (stereo partly drawn) ? 2.38

Follow-up item: CCCC(=N)NCCCCCCNC(=O)C(CC(C)C)NC(=O)CNC(=O)[C@]1(c2ccccc2)CC1CN1CC[C@@]2(C)c3cc(O)ccc3CC1C2C (stereo partly drawn) 1.19

Now the molecule CCCCC(=N)NCCCNC(=O)C(CC(C)C)NC(=O)CNC(=O)[C@]1(c2ccccc2)CC1CN1CC[C@@]2(C)c3cc(O)ccc3CC1C2C (stereo partly drawn) 1.26

Also, CCCCC(=N)NCCCCCCNC(=O)C(CC(C)C)NC(=O)CNC(=O)[C@]1(c2ccccc2)CC1CN1CC[C@@]2(C)c3cc(O)ccc3CC1C2C (stereo partly drawn) please. 0.72

Same question for CCCCC(=N)NCCCCCNC(=O)C(CC(C)C)NC(=O)[C@]1(c2ccccc2)CC1CN1CC[C@@]2(C)c3cc(O)ccc3CC1C2C (stereo partly drawn) please. 1.99

Can you handle CC(C)CC(NC(=O)[C@]1(c2ccccc2)CC1CN1CC[C@@]2(C)c3cc(O)ccc3CC1C2C)C(=O)NCCCN=C(N)N (stereo partly drawn) next? 2.45

Request: CCCCC(=N)NCCCNC(=O)C(CC(C)C)NC(=O)[C@]1(c2ccccc2)CC1CN1CC[C@@]2(C)c3cc(O)ccc3CC1C2C (stereo partly drawn) 2.14
